# experimental-target: Type-B CCK receptor (Cavia porcellus)
# Construct: cortex and pancreas were removed and rinsed with ice cold saline; from tissue; host or cells: guinea pig cerebral cortex, membranes
# Sequence (H0VZC5 1-426): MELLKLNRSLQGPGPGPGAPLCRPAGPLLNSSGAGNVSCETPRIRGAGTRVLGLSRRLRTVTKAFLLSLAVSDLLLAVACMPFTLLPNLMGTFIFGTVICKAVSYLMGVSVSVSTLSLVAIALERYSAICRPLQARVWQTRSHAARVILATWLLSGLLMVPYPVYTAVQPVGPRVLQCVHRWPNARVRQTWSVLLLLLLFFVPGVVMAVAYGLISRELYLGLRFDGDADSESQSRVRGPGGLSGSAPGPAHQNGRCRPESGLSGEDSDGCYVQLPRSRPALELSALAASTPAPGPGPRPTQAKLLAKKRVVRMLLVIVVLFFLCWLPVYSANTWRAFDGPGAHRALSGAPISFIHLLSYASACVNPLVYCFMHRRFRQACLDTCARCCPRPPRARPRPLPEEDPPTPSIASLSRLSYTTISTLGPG
# protocol-summary: Radioligand binding, [^125 I]-BH-CCK8, Type-B CCK receptor (cerebral cortical membranes)
# Design: species or system guinea pig
Measured IC50 of individual entries

Worked examples follow.
Check the records and state IC50 for O=C(O)CC[C@@H](NC(=O)c1cc2ccccc2[nH]1)C(=O)NC12CC3CC(CC(C3)C1)C2
> 10 µM

Check the records and state IC50 for O=C(CC[C@@H](NC(=O)c1cnc2ccccc2c1)C(=O)NCc1ccccc1)OCc1ccccc1
> 10 µM

Check the records and state IC50 for CCOC(=O)CN(Cc1ccccc1)C(=O)[C@@H](CCC(=O)O)NC(=O)c1cnc2ccccc2c1
> 10 µM

Check the records and state IC50 for CCOC(=O)CN(Cc1ccccc1)C(=O)[C@@H](CCC(=O)O)NC(=O)c1cc(O)c2cccc(O)c2n1
< 10 µM

Others:
Check the records and state IC50 for COC(=O)[C@@H](NC(=O)[C@@H](CCC(=O)O)NC(=O)c1cc(O)c2cccc(O)c2n1)c1ccccc1
≤ 10 µM

Check the records and state IC50 for COC(=O)[C@@H](NC(=O)[C@@H](CCC(=O)O)NC(=O)c1ccc2ccccc2c1)c1ccccc1
> 10 µM

Check the records and state IC50 for CCCCCN(CCCCC)C(=O)[C@@H](CCC(=O)O)NC(=O)c1ccc2ncccc2c1
~10 µM

Check the records and state IC50 for COC(=O)[C@@H](NC(=O)[C@@H](CCC(=O)O)NC(=O)c1cnc2ccccc2c1)c1ccccc1
> 10 µM

Check the records and state IC50 for CCOC(=O)CN(CC(=O)OCC)C(=O)[C@@H](CCC(=O)OCc1ccccc1)NC(=O)c1cnc2ccccc2c1
~10 µM

Check the records and state IC50 for CCOC(=O)CN(CC(=O)OCC)C(=O)[C@@H](CCC(=O)O)NC(=O)c1cnc2ccccc2c1
> 10 µM

---

# experimental-target: Type-A CCK receptor (Cavia porcellus)
# Construct: cortex and pancreas were removed and rinsed with ice cold saline; from tissue; host or cells: guinea pig pancreas, membranes
# Sequence (Q63931 1-430): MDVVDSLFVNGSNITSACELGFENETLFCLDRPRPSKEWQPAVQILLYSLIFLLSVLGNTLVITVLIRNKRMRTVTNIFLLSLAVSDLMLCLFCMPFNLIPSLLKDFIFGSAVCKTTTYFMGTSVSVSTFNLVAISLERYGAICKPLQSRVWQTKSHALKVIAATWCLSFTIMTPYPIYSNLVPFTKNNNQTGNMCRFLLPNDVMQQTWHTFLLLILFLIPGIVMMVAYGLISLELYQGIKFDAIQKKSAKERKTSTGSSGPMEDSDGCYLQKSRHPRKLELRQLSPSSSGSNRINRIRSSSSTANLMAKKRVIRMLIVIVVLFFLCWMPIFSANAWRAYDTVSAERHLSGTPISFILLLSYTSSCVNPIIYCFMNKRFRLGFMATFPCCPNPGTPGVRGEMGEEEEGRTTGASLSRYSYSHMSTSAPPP
# protocol-summary: Radioligand binding, [^125 I]-BH-CCK8, Type-A CCK receptor (pancreatic membranes)
# Set-up: species or system guinea pig
pIC50: −log10 of the molar value.
reported-metric: pIC50

Check the records and state pIC50 for CCOC(=O)CN(Cc1ccccc1)C(=O)[C@@H](CCC(=O)O)NC(=O)c1cc(O)c2cccc(O)c2n1 [Example 85]
7.00

Check the records and state pIC50 for CCCCCN(CCCCC)C(=O)[C@@H](CCC(=O)O)NC(=O)C1CNc2ccccc2N1 (stereo partly drawn) [Example 13]
7.04

Check the records and state pIC50 for CCOC(=O)CN(CC(=O)OCC)C(=O)[C@@H](CCC(=O)OCc1ccccc1)NC(=O)c1cnc2ccccc2c1 [Example 106]
7.03
